Recorded IC50 for the following molecules
Target: UniProt P08684
Sequence (P08684 whole entry, species assumed): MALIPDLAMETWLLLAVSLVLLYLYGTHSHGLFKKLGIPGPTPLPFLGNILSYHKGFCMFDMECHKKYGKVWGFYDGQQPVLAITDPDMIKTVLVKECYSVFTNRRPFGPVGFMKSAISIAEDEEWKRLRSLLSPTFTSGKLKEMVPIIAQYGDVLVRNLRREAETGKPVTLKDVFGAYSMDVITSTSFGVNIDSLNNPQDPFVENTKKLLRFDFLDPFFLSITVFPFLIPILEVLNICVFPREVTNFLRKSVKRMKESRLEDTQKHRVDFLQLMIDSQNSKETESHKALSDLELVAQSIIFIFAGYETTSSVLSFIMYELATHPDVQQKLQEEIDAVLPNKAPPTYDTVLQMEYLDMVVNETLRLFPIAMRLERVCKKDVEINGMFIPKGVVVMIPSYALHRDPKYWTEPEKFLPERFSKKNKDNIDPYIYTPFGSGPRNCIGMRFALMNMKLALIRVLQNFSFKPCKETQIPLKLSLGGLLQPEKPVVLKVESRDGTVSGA
Experiment: CYP inhibition, fluorescent, CYP3A4
Type: in vitro ADME

{"smi": "O=C(c1nc2ncc(CCO)cn2n1)N1C[C@H]2C[C@@H](c3ccccc3C(F)(F)F)C[C@H]2C1", "IC50": "> 100 µM"}

Exercise: Supply recorded IC50 for O=C(c1nc2ncc(CCO)cn2n1)N1C[C@@H]2CN(c3cc(F)ccc3C(F)(F)F)C[C@@H]2C1 here.
Solution: > 20 µM

* * *

pIC50: −log10 of the molar value.
Measured pIC50 (human RBP4 (Homo sapiens (Human)))
reported_endpoint: pIC50

Use these answered entries as a reference point.
{"compound": "O=C(c1nnc2ncccn12)N1C[C@H]2C[C@@H](c3ccccc3C(F)(F)F)C[C@H]2C1 [Compound 7b]", "target": "human RBP4 (Homo sapiens (Human))", "pIC50": 7.34}
{"compound": "O=C(c1nc2ncc(Br)cn2n1)N1C[C@H]2C[C@@H](c3ccccc3C(F)(F)F)C[C@H]2C1 [Compound 7c]", "target": "human RBP4 (Homo sapiens (Human))", "pIC50": 7.41}

A. O=C(c1nc2ncccn2n1)N1C[C@H]2C[C@@H](c3ccccc3C(F)(F)C(F)(F)F)C[C@H]2C1 [Compound 9a]
B. Cc1cnc2nc(C(=O)N3C[C@H]4C[C@@H](c5ccccc5OC(F)(F)F)C[C@H]4C3)nn2c1 [Compound 9f]
Exercise: Among A and B , whose measured pIC50 is the smaller figure? Response format: the label of the selected entry.
Solution: B
(B: 7.24, A: 7.56)
